targetDesc: FGFR1 active kinase (Homo sapiens)
assayMethodText: FGFR Kinase assay - Caliper; note: 408 µM ATP
Format: biochemical
conditions: FGFR1 […], 408 uM ATP; mean of n as printed; read-out: FGFR Kinase assay - Caliper, IC50
Method: FGFR Kinase Assay—Caliper To determine inhibition of FGFR activity, kinase assays were conducted using Caliper technology. Kinase activity assays were performed in Greiner 384-well low volume plates, with a total reaction volume of 12 ul per well. […] Percentage inhibition at 1 uM, as expressed herein, is a calculated value based on the curve fit that was generated experimentally. From the fitted curve plot, the effect of compound at a concentration of 1 uM was calculated as a percentage inhibition. […]
Recorded IC50 by entry
Form entry: value (nM) — number only.

The examples below pair each entry with its known result.
| smilesText | targetDesc | IC50, nM |
| --- | --- | --- |
| COc1ccc(C(=O)Nc2cc(CCc3cc(OC)cc(OC)c3)n[nH]2)cc1 | FGFR1 active kinase (Homo sapiens) | 132 |
| COc1ccc(CCc2cc(NC(=O)c3ccc(N4CCN(C)CC4)cc3)[nH]n2)c(C)c1 | FGFR1 active kinase (Homo sapiens) | 200 |
| COc1cc(CCc2cc(NC(=O)c3ccc(N4CCN(C5CCC5)CC4)cc3)n[nH]2)cc(OC)c1 | FGFR1 active kinase (Homo sapiens) | 9 |

For the molecule shown here, COc1cccc(CCc2cc(NC(=O)c3ccc(-n4cccn4)cc3)[nH]n2)c1 , give the reported IC50.
940

For the molecule shown here, COc1cc(CCc2cc(NC(=O)c3ccc(N4CCN(C)CC4)nn3)[nH]n2)cc(OC)c1 , give the reported IC50.
390

For the molecule shown here, COc1cccc(CCc2cc(NC(=O)c3ccc(C#N)cc3)[nH]n2)c1 , give the reported IC50.
28600

For the molecule shown here, COc1cc(CCc2cc(NC(=O)c3ccc(N4CCCCC4)cc3)n[nH]2)cc(OC)c1 , give the reported IC50.
438

For the molecule shown here, COc1cc(CCc2cc(NC(=O)c3ccc(C(=O)N4CCN(C)CC4)cc3)n[nH]2)cc(OC)c1 , give the reported IC50.
96

For the molecule shown here, COc1cc(COc2cc(NC(=O)c3ccc(N4CCN(C)CC4)cn3)[nH]n2)cc(OC)c1 , give the reported IC50.
122

For the molecule shown here, CN1CCN(c2ccc(C(=O)Nc3cc(CCc4ccoc4)n[nH]3)cc2)CC1 , give the reported IC50.
137

For the molecule shown here, COc1cc(CCc2cc(NC(=O)c3ccccc3OC)n[nH]2)cc(OC)c1 , give the reported IC50.
2610

For the molecule shown here, COc1cc(CCc2cc(NC(=O)c3ccc(N4CCNCC4)cc3)n[nH]2)cc(OC)c1 , give the reported IC50.
26

---

targetDesc: FGFR1 active kinase (Homo sapiens, UniProt P11362)
Sequence (P11362 22-822): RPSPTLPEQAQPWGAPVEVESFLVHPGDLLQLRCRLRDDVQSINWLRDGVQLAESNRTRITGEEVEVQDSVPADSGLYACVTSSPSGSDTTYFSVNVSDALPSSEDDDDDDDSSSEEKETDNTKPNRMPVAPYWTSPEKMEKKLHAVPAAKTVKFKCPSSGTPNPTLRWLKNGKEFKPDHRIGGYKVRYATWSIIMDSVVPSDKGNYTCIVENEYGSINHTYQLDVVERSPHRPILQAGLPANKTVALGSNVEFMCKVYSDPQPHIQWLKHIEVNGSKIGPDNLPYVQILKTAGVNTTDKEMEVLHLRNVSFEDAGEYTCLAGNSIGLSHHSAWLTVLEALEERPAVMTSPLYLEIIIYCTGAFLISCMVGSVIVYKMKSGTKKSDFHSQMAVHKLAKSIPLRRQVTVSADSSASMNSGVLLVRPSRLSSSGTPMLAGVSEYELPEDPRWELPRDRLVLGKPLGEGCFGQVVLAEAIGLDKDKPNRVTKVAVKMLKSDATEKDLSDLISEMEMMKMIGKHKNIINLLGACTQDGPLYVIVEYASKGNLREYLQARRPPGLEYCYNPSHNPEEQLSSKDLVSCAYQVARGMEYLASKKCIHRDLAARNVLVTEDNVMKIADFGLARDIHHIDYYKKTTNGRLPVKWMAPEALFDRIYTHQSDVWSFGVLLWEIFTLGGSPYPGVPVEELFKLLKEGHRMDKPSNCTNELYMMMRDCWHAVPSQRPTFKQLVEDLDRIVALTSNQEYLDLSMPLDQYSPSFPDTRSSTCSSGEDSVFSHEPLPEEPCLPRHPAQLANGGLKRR
assayMethodText: FGFR Kinase assay - Caliper Echo Dosing
Format: biochemical
conditions: FGFR1 7.2 nM, 408 uM ATP, acoustic dosing; geometric mean of n
Recorded pIC50 by entry
Reminder that pIC50 is minus the log10 of a molar concentration.

The examples below pair each entry with its known result.
| compound | pIC50 |
| --- | --- |
| COc1cc(COc2cc(NC(=O)c3cnc(N4C[C@@H](C)N(C)[C@@H](C)C4)nc3)[nH]n2)cc(OC)c1 [Example 138] | 8.59 |
| COc1cc(CCc2cc(NC(=O)c3cnc(N4C[C@@H](C)N(C)[C@@H](C)C4)nc3)[nH]n2)cc(OC)c1 [Example 136] | 8.72 |
| COc1cc(CCc2cc(NC(=O)c3cnc(C4CCN(C)CC4)cn3)[nH]n2)cc(OC)c1 [Example 152] | 8.89 |

Let's switch to this compound now.
For the compound shown here, COc1cc(CCc2cc(NC(=O)c3cnc(N4C[C@@H](C)N[C@@H](C)C4)cn3)[nH]n2)cc(OC)c1 [Example 112] , give the reported pIC50.
8.77
